TEST_SYSTEM: ERK5 (Homo sapiens)
Construct: made in house
Sequence (Q13164 whole entry): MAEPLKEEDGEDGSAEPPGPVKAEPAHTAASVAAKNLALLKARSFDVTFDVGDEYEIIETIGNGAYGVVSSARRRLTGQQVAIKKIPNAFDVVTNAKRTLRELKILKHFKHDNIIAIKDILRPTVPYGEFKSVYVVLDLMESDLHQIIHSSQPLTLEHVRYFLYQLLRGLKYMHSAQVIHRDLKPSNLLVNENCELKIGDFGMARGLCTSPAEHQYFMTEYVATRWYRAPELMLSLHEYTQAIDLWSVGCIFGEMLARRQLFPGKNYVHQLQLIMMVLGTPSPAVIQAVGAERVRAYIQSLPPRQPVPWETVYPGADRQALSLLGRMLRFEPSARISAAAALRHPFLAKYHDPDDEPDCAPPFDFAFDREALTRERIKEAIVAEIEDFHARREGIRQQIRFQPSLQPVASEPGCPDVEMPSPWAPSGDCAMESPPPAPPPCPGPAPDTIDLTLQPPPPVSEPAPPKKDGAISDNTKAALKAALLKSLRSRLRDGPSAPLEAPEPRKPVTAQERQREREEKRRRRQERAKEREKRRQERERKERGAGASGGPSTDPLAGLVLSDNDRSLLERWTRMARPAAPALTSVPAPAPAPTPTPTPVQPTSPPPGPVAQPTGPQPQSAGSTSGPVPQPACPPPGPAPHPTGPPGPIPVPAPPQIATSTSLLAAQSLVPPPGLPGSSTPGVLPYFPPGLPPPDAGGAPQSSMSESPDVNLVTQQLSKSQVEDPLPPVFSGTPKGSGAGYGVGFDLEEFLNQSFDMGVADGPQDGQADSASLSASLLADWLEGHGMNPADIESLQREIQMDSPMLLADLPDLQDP
ASSAY_PROTOCOL: ERK5 IMAP assay (fluorescence polarisation)
Assay type: biochemical
CONDITION_PARAMETERS: average (e.g. geometric mean) where more than one data point; read-out: ERK5 IC50
Procedure: The assay buffer was prepared using 0.01% Tween®-20 5× stock, supplied as part of IMAP™ FP Progressive Binding System Kit (Molecular Devices R7436) and diluted to 1× using miliQ H2O. […] 1 μL of inhibitor (in 60:40 H2O/DMSO) or 60:40 H2O/DMSO (for controls and blanks) were dry-spotted into the relevant wells of a 384-well assay plate using the MATRIX PlateMate® Plus. […] The assay plate was then read on an Analyst HT plate reader (Molecular Devices) using the settings described below: […]
OBSERVATION_TYPE: IC50

1) O=C(Nc1cccnc1)c1cc(C(=O)c2c(F)cccc2C2CC2)c[nH]1 ... 23000 nM
2) CN(C)CCNc1ncc(NC(=O)c2cc(C(=O)c3c(Cl)ccc(Cl)c3F)c[nH]2)cn1 ... 15.3 nM
3) O=C(Nc1cncnc1)c1cc(C(=O)c2c(Cl)ccc(Cl)c2F)c[nH]1 ... 316 nM
4) CCN(CC)CCn1cc(NC(=O)c2cc(C(=O)c3c(Cl)ccc(Cl)c3F)c[nH]2)cn1 ... 207 nM
